Molecular target: T1, Cynomolgus monkey Serum Albumin (Cynomolgus monkey, UniProt A2V9Z4 25-608)
T1 construct: mature; purified protein on CM5 chips for BIAcore; also called CSA; cyno SA
T1 sequence (A2V9Z4 25-608): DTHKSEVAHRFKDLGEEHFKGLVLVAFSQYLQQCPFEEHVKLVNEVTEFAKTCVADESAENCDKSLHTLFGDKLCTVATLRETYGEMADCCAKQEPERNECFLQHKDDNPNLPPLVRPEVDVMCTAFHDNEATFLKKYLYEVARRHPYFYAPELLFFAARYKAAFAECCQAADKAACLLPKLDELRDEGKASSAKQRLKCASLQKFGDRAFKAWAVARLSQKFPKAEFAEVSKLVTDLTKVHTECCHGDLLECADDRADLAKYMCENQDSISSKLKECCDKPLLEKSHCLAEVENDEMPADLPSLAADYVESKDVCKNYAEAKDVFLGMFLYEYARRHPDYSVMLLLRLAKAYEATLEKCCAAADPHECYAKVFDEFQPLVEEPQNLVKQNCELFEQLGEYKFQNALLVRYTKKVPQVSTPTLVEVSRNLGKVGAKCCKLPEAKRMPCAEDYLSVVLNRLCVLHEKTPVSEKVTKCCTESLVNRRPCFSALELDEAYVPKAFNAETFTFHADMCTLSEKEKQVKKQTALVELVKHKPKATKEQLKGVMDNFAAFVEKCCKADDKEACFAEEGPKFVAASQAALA
Test: BIAcore SPR;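 note: purified dAbs run at 1 µM, 500 nM and 50 nM over human, cynomolgus, mouse and rat serum albumin in BIAcore binding measurements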
readout type: kon
Hi, when you answer, please include the unit after the number. Thanks!

binder="DOM7h-14-10 (other, Vk dAb (AlbudAb)) VL: DIQMTQSPSSLSASVGDRVTITCRASQWIGSQLSWYQQKPGKAPKLLIMWRSSLQSGVPSRFSGSGSGTDFTLTISSLQPEDFATYYCAQGLRHPKTFGQGTKVEIKR" readout_type=kon experimental_value="1.6e+06 M⁻¹ s⁻¹"
binder="DOM7h-14 (other, Vk dAb (AlbudAb)) VL: DIQMTQSPSSLSASVGDRVTITCRASQWIGSQLSWYQQKPGKAPKLLIMWRSSLQSGVPSRFSGSGSGTDFTLTISSLQPEDFATYYCAQGAALPRTFGQGTKVEIKR" readout_type=kon experimental_value="1.5e+06 M⁻¹ s⁻¹"

Input: Name the recorded kon for DOM7h-11 (other) VL: DIQMTQSPSSLSASVGDRVTITCRASRPIGTTLSWYQQKPGKAPKLLIWFGSRLQSGVPSRFSGSGSGTDFTLTISSLQPEDFATYYCAQAGTHPTTFGQGTKVEIKR .
Output: 800000 M⁻¹ s⁻¹

Data origin: patent US20130129746A1
